// reported protein stability index for each item listed
B1: PLK2 (parent)
chain: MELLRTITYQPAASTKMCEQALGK

# Variants of: B1
# ASSAY OVERVIEW: protein stability index of a GFP-peptide fusion (GPS, HEK-293T) (PSI 1-6); higher = more stable;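 note: lentivirally expressed fusions sorted by FACS into six bins by GFP to DsRed ratio, PSI derived from sequencing read proportions per bin multiplied by bin number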
# MEASUREMENT SETUP: c terminus: a fixed tail appended
Enter a number only.

Reference set, count: 5
MUTATION KEY: M17T
MEASURED VALUE: 2.74

MUTATION KEY: R5V
MEASURED VALUE: 4.09

MUTATION KEY: A13Q
MEASURED VALUE: 3.13

MUTATION KEY: K16W
MEASURED VALUE: 2.05

MUTATION KEY: M1N
MEASURED VALUE: 4.1

May I ask what protein stability index has been recorded for I7N ?
3.19
